Test system: platelet
assay-comment: Inhibition of platelet agglutination (rat PRP)
Format: cell-based
measurement-setup: agglutination caused by collagen, read-out: IC50 Collagen
Protocol: A blood was taken from a descending aorta of the rat anesthetized with ethyl ether. To the blood, 3.8% aqueous sodium citrate was added by a volume of 1/3 and the resulting solution was centrifuged (1500 rpm) at 4° C. for 10 minutes to obtain a supernatant which was designated as "PRP (platelet rich plasma)". […] A transmissivity to PRP and PPP was measured and set as "0%" for the former case and as "100%" for the latter case. […]
pIC50: −log10 of the molar value.
# key: entry, value: pIC50
quantity: pIC50

- O=C1NC(=O)[C@@]2(C[C@@H](C(=O)NCCO[N+](=O)[O-])Oc3ccc(F)cc32)N1: 3.62
- COc1ccc2c(c1)c(CC(=O)O)c(C)n2C(=O)c1ccc(Cl)cc1 [Indomethacin, reference compound]: 4.17
- O=C1NC(=O)[C@@]2(C[C@@H](C(=O)NNc3ccccc3)Oc3ccc(F)cc32)N1: 3.85
- O=C1NC(=O)[C@@]2(C[C@@H](C(=O)NCCN3CCC(Cc4ccccc4)CC3)Oc3ccc(F)cc32)N1: 4.08
- CC(=O)Oc1ccccc1C(=O)O [Aspirin, reference compound]: 3.68
- O=C1NC(=O)[C@@]2(C[C@@H](C(=O)NNc3ccc(Cl)cc3)Oc3ccc(F)cc32)N1: 3.74
- O=C1NC(=O)[C@@]2(C[C@@H](C(=O)NCCN3CCN(C(c4ccccc4)c4ccccc4)CC3)Oc3ccc(F)cc32)N1: 3.39
- COc1ccccc1N1CCN(CCNC(=O)[C@@H]2C[C@]3(NC(=O)NC3=O)c3cc(F)ccc3O2)CC1: 3.18
- O=C1NC(=O)[C@@]2(C[C@@H](C(=O)NNc3cccc4ccccc34)Oc3ccc(F)cc32)N1: 3.64
- O=C1NC(=O)[C@@]2(C[C@@H](C(=O)NCCN3CCN(CC=Cc4ccccc4)CC3)Oc3ccc(F)cc32)N1: 3.60
- COc1ccc(NNC(=O)[C@@H]2C[C@]3(NC(=O)NC3=O)c3cc(F)ccc3O2)cc1: 4.59

====

Tested on: thoracic aorta
assay-comment: Action to the aorta of guinea pig (relaxation of contracted spiral samples)
Set-up: species or system Hartley guinea pigs
measurement-setup: Cavia porcellus, read-out: IC50 KCl contraction (50% relaxing)
pIC50: −log10 of the molar value.
quantity: pIC50

* COc1cc(/C=C/C(=O)N2CCN(CC(=O)N3CCCC3)CC2)cc(OC)c1OC [Cinepazide, reference compound] | 2.70

====

So I've got pIC50 readings for aldose reductase (Rattus norvegicus, UniProt P07943), take a look.
pIC50: −log10 of the molar value.
quantity: pIC50

- O=C1NC(=O)[C@@]2(C[C@@H](C(=O)NCCn3ccnc3)Oc3ccc(F)cc32)N1: 6.19
- O=C1NC(=O)[C@@]2(C[C@@H](C(=O)NCCN3CCC(Cc4ccccc4)CC3)Oc3ccc(F)cc32)N1: 5.72
- O=C1NC(=O)[C@@]2(C[C@@H](C(=O)NO)Oc3ccc(F)cc32)N1: 7.43
- COc1ccc(NNC(=O)[C@@H]2C[C@]3(NC(=O)NC3=O)c3cc(F)ccc3O2)cc1: 7.36

====

So I've got IC50 readings for aldose reductase (Rattus norvegicus), take a look.
quantity: IC50 (nM)

• O=C1NC(=O)[C@@]2(C[C@@H](C(=O)NNc3ccccc3)Oc3ccc(F)cc32)N1 = 22
• CNNC(=O)[C@@H]1C[C@]2(NC(=O)NC2=O)c2cc(F)ccc2O1 = 300
• O=C1NC(=O)[C@@]2(C[C@@H](C(=O)NNc3ccc(Cl)cc3)Oc3ccc(F)cc32)N1 = 26
• O=C1NC(=O)[C@@]2(C[C@@H](C(=O)NCCN3CCN(C(c4ccccc4)c4ccccc4)CC3)Oc3ccc(F)cc32)N1 = 150
• O=C1NC(=O)[C@@]2(C[C@@H](C(=O)NCCO[N+](=O)[O-])Oc3ccc(F)cc32)N1 = 190
• O=C1NC(=O)[C@@]2(C[C@@H](C(=O)NNc3cccc4ccccc34)Oc3ccc(F)cc32)N1 = 13
• O=C1NC(=O)[C@@]2(C[C@@H](C(=O)NCCN3CCN(CC=Cc4ccccc4)CC3)Oc3ccc(F)cc32)N1 = 220
• COc1ccccc1N1CCN(CCNC(=O)[C@@H]2C[C@]3(NC(=O)NC3=O)c3cc(F)ccc3O2)CC1 = 240

====

# key: entry, value: inhibition at 100 µM
System: right atrium
assay-comment: Action to heart of guinea pig: right atrium (pulsations);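 note: Dash means no recognizable influence on pulsation rate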
Design: species or system Hartley guinea pigs
measurement-setup: Cavia porcellus; 10^-4 (M); right atrium; 32°±1° C.; read-out: Pulsation
quantity: inhibition at 100 µM

- CC(C(O)c1ccc(O)cc1)N1CCC(Cc2ccccc2)CC1 (centres unmarked) [B, Ifenprodil, reference compound]: > 20%
- O=C1NC(=O)[C@@]2(C[C@@H](C(=O)NNc3ccc(Cl)cc3)Oc3ccc(F)cc32)N1 [Example 4]: 10 to 20%
- O=C1NC(=O)[C@@]2(C[C@@H](C(=O)NCCN3CCC(Cc4ccccc4)CC3)Oc3ccc(F)cc32)N1 [Example 11]: > 20%
- O=C1NC(=O)[C@@]2(C[C@@H](C(=O)NNc3cccc4ccccc34)Oc3ccc(F)cc32)N1 [Example 6]: 10 to 20%
- CCCCNC(=O)[C@@H]1C[C@]2(NC(=O)N(CCCN3CCC(O)CC3)C2=O)c2cc(F)ccc2O1 [Example 17]: 10 to 20%
- O=C1NC(=O)[C@@]2(C[C@@H](C(=O)NCCN3CCN(C(c4ccccc4)c4ccccc4)CC3)Oc3ccc(F)cc32)N1 [Example 10]: > 20%
- O=C1NC(=O)[C@@]2(C[C@@H](C(=O)NCCN3CCN(CC=Cc4ccccc4)CC3)Oc3ccc(F)cc32)N1 [Example 8]: 10 to 20%
- CCNC(=O)[C@@H]1C[C@]2(NC(=O)N(CCCN3CCC(O)CC3)C2=O)c2cc(F)ccc2O1 [Example 16]: 10 to 20%

====

Test system: left atrium
assay-comment: Action to heart of guinea pig: left atrium (contraction power)
Design: species or system Hartley guinea pigs
measurement-setup: 10^-5 (M); left atrium; 32°±1° C.
quantity: Contraction

• CCNC(=O)[C@@H]1C[C@]2(NC(=O)N(CCCN3CCC(O)CC3)C2=O)c2cc(F)ccc2O1 = -
• O=C1NC(=O)[C@@]2(C[C@@H](C(=O)NCCN3CCN(CC=Cc4ccccc4)CC3)Oc3ccc(F)cc32)N1 = -
• O=C1NC(=O)[C@@]2(C[C@@H](C(=O)NNc3ccccc3)Oc3ccc(F)cc32)N1 = -
• COc1cc(C=CC(=O)N2CCN(CCNC(=O)[C@@H]3C[C@]4(NC(=O)NC4=O)c4cc(F)ccc4O3)CC2)cc(OC)c1OC = -
• O=C1NC(=O)[C@@]2(C[C@@H](C(=O)NCCN3CCN(C(c4ccccc4)c4ccccc4)CC3)Oc3ccc(F)cc32)N1 = -
• COc1ccccc1N1CCN(CCNC(=O)[C@@H]2C[C@]3(NC(=O)NC3=O)c3cc(F)ccc3O2)CC1 = -
• O=C1NC(=O)[C@@]2(C[C@@H](C(=O)NCCN3CCC(Cc4ccccc4)CC3)Oc3ccc(F)cc32)N1 = -
• NC(=O)[C@@H]1C[C@]2(NC(=O)N(CCCN3CCC(O)CC3)C2=O)c2cc(F)ccc2O1 = -
• O=C1NC(=O)[C@@]2(C[C@@H](C(=O)NNc3ccc(Cl)cc3)Oc3ccc(F)cc32)N1 = -
• COc1ccc(NNC(=O)[C@@H]2C[C@]3(NC(=O)NC3=O)c3cc(F)ccc3O2)cc1 = -
• O=C1NC(=O)[C@@]2(C[C@@H](C(=O)NNc3cccc4ccccc34)Oc3ccc(F)cc32)N1 = -
• CC(C(O)c1ccc(O)cc1)N1CCC(Cc2ccccc2)CC1 (stereo not drawn) [B, Ifenprodil, reference compound] = -
